Where do these numbers come from? They come from ChEMBL document CHEMBL5126507.

- study.target: P2Y purinoceptor 12 (Homo sapiens)
- Sequence (Q9H244 whole entry): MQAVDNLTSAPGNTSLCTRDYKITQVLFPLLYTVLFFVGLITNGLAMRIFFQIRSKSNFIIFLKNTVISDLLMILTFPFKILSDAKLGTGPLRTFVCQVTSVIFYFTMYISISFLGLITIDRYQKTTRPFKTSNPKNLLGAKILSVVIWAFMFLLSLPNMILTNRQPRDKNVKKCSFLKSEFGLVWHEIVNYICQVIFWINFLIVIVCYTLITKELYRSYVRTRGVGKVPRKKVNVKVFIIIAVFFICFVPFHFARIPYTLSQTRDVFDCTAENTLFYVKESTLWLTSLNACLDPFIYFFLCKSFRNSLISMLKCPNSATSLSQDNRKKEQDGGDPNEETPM
- test.protocol: Binding affinity to human P2Y12 expressed in astrocytoma cells
- Assay type: cell-based, Astrocyte
endpoint: pKi
pKi is a log-scale quantity: -log10 of the concentration expressed in molar.

Query :: Reported pKi, compound Cc1cc(Nc2ccc(Nc3ccccc3)c(S(=O)(=O)O)c2)c2c(c1N)C(=O)c1ccccc1C2=O : ____
Result :: 7.29

Query :: Which pKi value belongs to Cc1c(N)cccc1Nc1cc(S(=O)(=O)O)c(N)c2c1C(=O)c1ccccc1C2=O ?
Result :: 7.60

Query :: Please report the recorded pKi for Cc1cc(C)cc(Nc2cc(S(=O)(=O)O)c(N)c3c2C(=O)c2ccccc2C3=O)c1 .
Result :: 7.20

====

Provide the reported IC50 of each item.
- study.target: P2Y purinoceptor 12 (Homo sapiens)
- test.protocol: Displacement of [3H]2MeSADP from P2Y12 (unknown origin)
Please reply with the bare figure in nM and do not write the unit itself.

Query :: Value lookup for IC50; key = C[C@H](CC[C@@H](C)C(C)(C)C)[C@H]1CC[C@H]2[C@@H]3C[C@H](OS(=O)(=O)O)[C@H]4C[C@@H](OS(=O)(=O)O)[C@H](OS(=O)(=O)O)C[C@]4(C)[C@H]3CC[C@]12C
Result :: 480

Query :: For C[C@H]([C@@H](O)[C@H](O)[C@@H](C)C(C)(C)C)[C@H]1CC[C@H]2[C@@H]3CC[C@H]4C[C@@H](OS(=O)(=O)O)[C@H](OS(=O)(=O)O)C[C@]4(C)[C@H]3CC[C@]12C , what is its reported IC50?
Result :: 2200

====

- test.protocol: Antiplatelet activity in human platelet rich plasma assessed as inhibition of CaCl2/fibrinogen-induced platelet aggregation preincubated for 5 mins followed by CaCl2/fibrinogen addition by microplate reader analysis
- Assay type: functional, cell-based
endpoint: pIC50
API: returns pIC50 as number; meaning -log10 of concentration in mol/L.

Query :: Could you tell me which pIC50 is on file for CCCSc1nc(N[C@@H]2C[C@H]2c2ccccc2)c2nnn([C@@H]3C=C[C@H](OCC(=O)O)[C@@H](O)[C@H]3O)c2n1 ?
Result :: 5.54

====

- test.protocol: Antiplatelet activity in human platelet rich plasma assessed as inhibition of ADP-induced platelet aggregation preincubated for 5 mins followed by ADP addition and measured after 5 mins
- Format: functional, cell-based
endpoint: pIC50
// field semantics: pIC50 = negative decimal log of concentration (mol/L)

Query :: Give its pIC50 value. Item: COc1cc(/C=C/c2cc(O)cc(O)c2)ccc1O
Result :: 5.73

====

Kindly supply the reported IC50 values for the records listed here.
- test.protocol: Antiplatelet activity in human platelet rich plasma assessed as inhibition of ADP-induced platelet aggregation preincubated for 2 mins followed by ADP addition for 5 mins
- Type: functional, cell-based
Lab book: enter the figure in nM, no units written.

Query :: I have this compound here, CCCCOC(=O)N1CCN(C(=O)[C@H](CCP(=O)(O)O)NC(=O)c2cc(N3CC[C@H](OC)C3)nc(-c3ccccc3)n2)CC1 , and I need its recorded IC50.
Result :: 1

Query :: Any idea what its IC50 is? The compound is CCCCOC(=O)N1CCN(C(=O)[C@H](CP(=O)(OCOC(=O)OC(C)C)OCOC(=O)OC(C)C)NC(=O)c2cc(N3CC[C@H](OC)C3)nc(-c3ccccc3)n2)CC1
Result :: 8
